- target_entity: Intestinal-type alkaline phosphatase (Homo sapiens) (UniProt P09923)
- Sequence (P09923 whole entry, looked up): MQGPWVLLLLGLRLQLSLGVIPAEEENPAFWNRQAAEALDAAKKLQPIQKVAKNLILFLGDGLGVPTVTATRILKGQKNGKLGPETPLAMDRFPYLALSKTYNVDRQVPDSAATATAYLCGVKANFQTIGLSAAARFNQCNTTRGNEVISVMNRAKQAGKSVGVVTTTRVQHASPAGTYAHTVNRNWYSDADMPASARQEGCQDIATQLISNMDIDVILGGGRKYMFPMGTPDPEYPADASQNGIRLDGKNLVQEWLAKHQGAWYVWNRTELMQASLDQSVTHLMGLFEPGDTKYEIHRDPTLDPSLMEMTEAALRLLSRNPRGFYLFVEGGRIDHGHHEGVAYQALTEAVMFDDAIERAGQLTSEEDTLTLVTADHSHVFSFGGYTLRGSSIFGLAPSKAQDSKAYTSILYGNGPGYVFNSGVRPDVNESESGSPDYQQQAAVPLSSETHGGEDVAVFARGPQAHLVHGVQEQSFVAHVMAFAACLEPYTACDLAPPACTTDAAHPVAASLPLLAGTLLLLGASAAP
- test: inhibition of human intestinal alkaline phosphatase – biochemical, set 2, mouse IAP inhibitor project, SAR follow-up (AID 588645)
- applied_conditions: human intestinal alkaline phosphatase enzymatic inhibition assay
Calls of active or inactive are those of the source. No rule for the calls is given here.
Classes used: active, inactive

compound_structure_string: O=c1[nH]c2ccc(S(=O)(=O)NCc3ccc4c(c3)OCO4)cc2o1
category: inactive
--
compound_structure_string: Cc1ccc(C)c(NC(=O)CCNS(=O)(=O)c2ccc3[nH]c(=O)oc3c2)c1
category: inactive
--
compound_structure_string: O=C(N/N=C/c1ccc(F)c(Br)c1)c1cc(O)c(O)c(O)c1
category: inactive
--
compound_structure_string: COc1ccc(CNS(=O)(=O)c2ccc3[nH]c(=O)oc3c2)cc1
category: inactive
--
compound_structure_string: Cc1ccc(CNC(=O)CCNS(=O)(=O)c2ccc3[nH]c(=O)oc3c2)cc1
category: inactive
--
compound_structure_string: Cc1ccc(NC(=O)CCNS(=O)(=O)c2ccc3[nH]c(=O)oc3c2)cc1C
category: inactive
--
compound_structure_string: O=C(CCNS(=O)(=O)c1ccc2[nH]c(=O)oc2c1)NCc1ccc(O)c(O)c1
category: active
--
compound_structure_string: Cc1ccc(NC(=O)CCNS(=O)(=O)c2ccc3c(c2)oc(=O)n3C)c(C)c1
category: inactive
--
compound_structure_string: COc1cccc(CNS(=O)(=O)c2ccc3[nH]c(=O)oc3c2)c1
category: inactive
--
compound_structure_string: N#Cc1ccc(NC(=O)CNS(=O)(=O)c2ccc3[nH]c(=O)oc3c2)cc1
category: inactive
